Source of measurements: paper PMC4391719

# procedure summary: Biodistribution of ^111In-labelled fragments in CD1 nu/nu mice without tumours
# Assay type: in vivo, mouse
# test conditions: CD1 nu/nu, mouse, liver, iv, 100 kBq, total radioactivity, ^111In-labelled fragment ~100 kBq i.v. tail vein, mice without tumours, after 4 h; read-out: Biodistribution of fragment, Liver
Where a SMILES comes first, the peptide text is derived from it. The star is where a group is joined. NODAGA = O=C(O)CN1CCN(CC(=O)O)CCN(C(CCC(=O)*)C(=O)O)CC1
Consider the following molecules; for each one, report its tissue uptake at 4 h.
Give bare numbers, in %ID/g.

- NC(=O)[C@H](CCCCNC(=O)CCC(C(=O)O)N1CCN(CC(=O)O)CCN(CC(=O)O)CC1)NC(=O)[C@H](CO)NC(=O)[C@@H]1CCCN1C(=O)[C@@H]1CCCN1C(=O)[C@@H]1CCCN1C(=O)[C@H](CCC(=O)O)NC(=O)[C@@H](N)CC(=O)O (some centres unmarked) [CL3-F1] (H-DEPPPSK(NODAGA)-NH2): 0.04

Prompt: Look up tissue uptake at 4 h: CSCC[C@H](NC(=O)[C@H](Cc1ccc(O)cc1)NC(=O)[C@@H](N)CC(=O)O)C(=O)NCC(=O)N[C@@H](Cc1c[nH]c2ccccc12)C(=O)N[C@@H](CCSC)C(=O)N[C@@H](CC(=O)O)C(=O)N[C@@H](Cc1ccccc1)C(=O)N[C@@H](CCCCNC(=O)CCC(C(=O)O)N1CCN(CC(=O)O)CCN(CC(=O)O)CC1)C(N)=O (some centres unmarked) [CL2-F1]
Completion: 0.17

====

# procedure summary: Biodistribution of ^111In-labelled fragments in CD1 nu/nu mice without tumours
# Assay type: in vivo, mouse
# test conditions: CD1 nu/nu, mouse, in vivo, iv, 100 kBq, total radioactivity, Biodistribution of fragment, Blood
# Procedure: Biodistribution of ^111In-PSI-CLNOD1, ^111In-PSI-CLNOD2, ^111In-PSI-CLNOD3 and ^111In-Ex4NOD40 were performed in CD 1 nu/nu mice with tumour xenografts that were prepared as previously described. […] Blood, heart, lungs, spleen, kidneys, pancreas, stomach, intestine, liver, muscle, bone and tumour were removed, weighted and activity determined in a γ-counter (Packard Cobra II Auto Gamma, Perkin Elmer, Switzerland). […]
Where a SMILES comes first, the peptide text is derived from it. The star is where a group is joined. NODAGA = O=C(O)CN1CCN(CC(=O)O)CCN(C(CCC(=O)*)C(=O)O)CC1
endpoint label: tissue uptake at 4 h (%ID/g)
One number for each entry, in %ID/g.

Use these answered entries as a reference point.
* NC(=O)[C@H](CCCCNC(=O)CCC(C(=O)O)N1CCN(CC(=O)O)CCN(CC(=O)O)CC1)NC(=O)[C@H](CO)NC(=O)[C@@H]1CCCN1C(=O)[C@@H]1CCCN1C(=O)[C@@H]1CCCN1C(=O)[C@@H](N)CCC(=O)O (stereo partly shown) [CL3-F2] (H-EPPPSK(NODAGA)-NH2) | 0.02
* CC(C)[C@H](NC(=O)[C@H](C)NC(=O)[C@@H](N)CCC(=O)O)C(=O)N[C@@H](CCCCNC(=O)CCC(C(=O)O)N1CCN(CC(=O)O)CCN(CC(=O)O)CC1)C(N)=O (stereo partly shown) [CL1-F2] (H-EAVK(NODAGA)-NH2) | 0.01
* CC(C)[C@H](NC(=O)[C@H](C)NC(=O)[C@H](CCC(=O)O)NC(=O)[C@@H](N)CCC(=O)O)C(=O)N[C@@H](CCCCNC(=O)CCC(C(=O)O)N1CCN(CC(=O)O)CCN(CC(=O)O)CC1)C(N)=O (stereo partly shown) [CL1-F1] (H-EEAVK(NODAGA)-NH2) | 0.01

Prompt: Look up tissue uptake at 4 h: NC(=O)[C@H](CCCCNC(=O)CCC(C(=O)O)N1CCN(CC(=O)O)CCN(CC(=O)O)CC1)NC(=O)[C@H](Cc1ccccc1)NC(=O)[C@@H](N)CC(=O)O (stereo partly shown)
Completion: 0.01
